system: Staphylococcus aureus; assay: Antibacterial activity against methicillin-resistant Staphylococcus aureus isolate 6 incubated overnight by agar dilution method; type: functional
Readout type: MIC (mg/L)
Please give a number only; it is taken to be in mg/L.

C[C@]12C[C@]34C[C@@H]1C[C@H](O2)[C@H]3[C@](C)(CCC(=O)Nc1c(O)ccc(C(=O)O)c1O)C(=O)C[C@@H]4SC(=O)c1ccccc1 : 1
CCS[C@H]1CC(=O)[C@@](C)(CCC(=O)Nc2c(O)ccc(C(=O)O)c2O)[C@@H]2[C@@H]3C[C@H]4C[C@]12C[C@]4(C)O3 : 2
C[C@]12C[C@]34C[C@@H]1C[C@H](O2)[C@H]3[C@](C)(CCC(=O)Nc1c(O)ccc(C(=O)O)c1O)C(=O)C[C@@H]4SC(=O)c1cc(F)cc(F)c1 : 1
C[C@]12C[C@]34C[C@@H]1C[C@H](O2)[C@H]3[C@](C)(CCC(=O)Nc1c(O)ccc(C(=O)O)c1O)C(=O)C[C@@H]4SC(=O)c1ccc([N+](=O)[O-])cc1 : 1

Find the measured MIC: item C[C@]12C[C@]34C[C@@H]1C[C@H](O2)[C@H]3[C@](C)(CCC(=O)Nc1c(O)ccc(C(=O)O)c1O)C(=O)C[C@@H]4SC(=O)c1ccc(C(F)(F)F)cc1 , target or system Staphylococcus aureus.
1

----------
test system: Staphylococcus aureus; test: Antibacterial activity against methicillin-resistant Staphylococcus aureus isolate 11 incubated overnight by agar dilution method; type: functional
This listing pairs molecules with measured MIC.
Response body: numeric value in µg/mL, unit text excluded.

Use these answered entries as a reference point.
Cc1ccc(S[C@H]2CC(=O)[C@@](C)(CCC(=O)Nc3c(O)ccc(C(=O)O)c3O)[C@@H]3[C@@H]4C[C@H]5C[C@]23C[C@]5(C)O4)cc1 : 2
Cc1ccc(C(=O)S[C@H]2CC(=O)[C@@](C)(CCC(=O)Nc3c(O)ccc(C(=O)O)c3O)[C@@H]3[C@@H]4C[C@H]5C[C@]23C[C@]5(C)O4)cc1 : 2

Next molecule, please.
Quick one: MIC of C[C@]12C[C@]34C[C@@H]1C[C@H](O2)[C@H]3[C@](C)(CCC(=O)Nc1c(O)ccc(C(=O)O)c1O)C(=O)C[C@@H]4SC(=O)c1ccc2ccccc2c1 ?
4

----------
tested on: Staphylococcus aureus; test: Antibacterial activity against Staphylococcus aureus ATCC 29213 incubated overnight by agar dilution method; format: functional
Catalogue of MIC readings, one per entry.
Write the number in µg/mL without appending the unit.

Form entry - test system: Staphylococcus aureus; read-out: MIC; molecule: C[C@]12C[C@]34C[C@@H]1C[C@H](O2)[C@H]3[C@](C)(CCC(=O)Nc1c(O)ccc(C(=O)O)c1O)C(=O)C[C@@H]4SC(=O)c1ccc([N+](=O)[O-])cc1
1

Follow-up item: C[C@]12C[C@]34C[C@@H]1C[C@H](O2)[C@H]3[C@](C)(CCC(=O)Nc1c(O)ccc(C(=O)O)c1O)C(=O)C[C@@H]4SC(=O)c1ccccc1
1

----------
system: Staphylococcus aureus; test: Antibacterial activity against methicillin-resistant Staphylococcus aureus isolate 11 incubated overnight by agar dilution method; type: functional
Below, each of the compounds is paired with its reported MIC value.
Write it as a number; the unit µg/mL goes unstated.

// worked examples, MIC included
C[C@]12C[C@]34C[C@@H]1C[C@H](O2)[C@H]3[C@](C)(CCC(=O)Nc1c(O)ccc(C(=O)O)c1O)C(=O)C[C@@H]4SC(=O)c1cccc(F)c1 : 2
C=C1C[C@@]23CCC1C[C@@H]2[C@](C)(CCC(=O)Nc1c(O)ccc(C(=O)O)c1O)C(=O)C[C@@H]3SC(=O)Cc1ccc(F)cc1 (single isomer, unassigned) : 4

Any idea what MIC came out for C[C@]12C[C@]34C[C@@H]1C[C@H](O2)[C@H]3[C@](C)(CCC(=O)Nc1c(O)ccc(C(=O)O)c1O)C(=O)C[C@@H]4SC(=O)c1ccccc1C(F)(F)F on Staphylococcus aureus?
4

# iterate: CC(=O)NC[C@H]1CN(c2ccc(N3CCOCC3)c(F)c2)C(=O)O1
1

// next record C=C1C[C@@]23CCC1C[C@@H]2[C@](C)(CCC(=O)Nc1c(O)ccc(C(=O)O)c1O)C(=O)C[C@@H]3SC(=O)c1ccccc1 (single isomer, unassigned)
2

Repeat with C=C1C[C@@]23C=CC(=O)[C@@](C)(CCC(=O)Nc4c(O)ccc(C(=O)O)c4O)[C@@H]2C[C@@H]1CC3
1

Same again, this time with CC(=O)S[C@H]1CC(=O)[C@@](C)(CCC(=O)Nc2c(O)ccc(C(=O)O)c2O)[C@@H]2[C@@H]3C[C@H]4C[C@]12C[C@]4(C)O3
4

----------
system: Staphylococcus aureus; experiment: Antibacterial activity against methicillin-resistant Staphylococcus aureus isolate 11 incubated overnight by agar dilution method; assay type: functional
# maps each entry to its MIC
Please respond with the number in µg/mL and leave the unit unwritten.

C=C1C[C@@]23CCC1C[C@@H]2[C@](C)(CCC(=O)Nc1c(O)ccc(C(=O)O)c1O)C(=O)C[C@@H]3Sc1ccc(C)cc1 (single isomer, unassigned) : 2

Fill in the recorded MIC for this compound, with Staphylococcus aureus as test system: C=C1C[C@@]23CCC1C[C@@H]2[C@](C)(CCC(=O)Nc1c(O)ccc(C(=O)O)c1O)C(=O)C[C@@H]3SC(C)=O (single isomer, unassigned)
4

Next compound up: C[C@]12C[C@]34C[C@@H]1C[C@H](O2)[C@H]3[C@](C)(CCC(=O)Nc1c(O)ccc(C(=O)O)c1O)C(=O)C[C@@H]4SC(=O)c1cccc(C(F)(F)F)c1
2

Same again, this time with C[C@]12C[C@]34C[C@@H]1C[C@H](O2)[C@H]3[C@](C)(CCC(=O)Nc1c(O)ccc(C(=O)O)c1O)C(=O)C[C@@H]4SC(=O)Cc1ccc(F)cc1
4

Now consider C[C@]12C[C@]34C[C@@H]1C[C@H](O2)[C@H]3[C@](C)(CCC(=O)Nc1c(O)ccc(C(=O)O)c1O)C(=O)C[C@@H]4SC(=O)c1ccc(Br)cc1 and answer again.
2

----------
system: Staphylococcus aureus; assay: Antibacterial activity against methicillin-resistant Staphylococcus aureus isolate 6 incubated overnight by agar dilution method; assay type: functional
Readout type: MIC

Here's what some known entries look like.
C[C@]12C[C@]34C[C@@H]1C[C@H](O2)[C@H]3[C@](C)(CCC(=O)Nc1c(O)ccc(C(=O)O)c1O)C(=O)C[C@@H]4SC(=O)c1cccs1 : 2 µg/mL
C[C@]12C[C@]34C[C@@H]1C[C@H](O2)[C@H]3[C@](C)(CCC(=O)Nc1c(O)ccc(C(=O)O)c1O)C(=O)C[C@@H]4SC(=O)c1ccccc1F : 1 µg/mL
C=C1C[C@@]23C=CC(=O)[C@@](C)(CCC(=O)Nc4c(O)ccc(C(=O)O)c4O)[C@@H]2C[C@@H]1CC3 [PLATENCIN] : 1 µg/mL
CC(=O)NC[C@H]1CN(c2ccc(N3CCOCC3)c(F)c2)C(=O)O1 [LINEZOLID] : 1 µg/mL

Attention now turns to another entry.
Reported MIC, compound C[C@]12C[C@@]34C=CC(=O)[C@@](C)(CCC(=O)Nc5c(O)ccc(C(=O)O)c5O)[C@@H]3[C@H](C[C@@H]1C4)O2 : ____
1 µg/mL

----------
test system: Staphylococcus aureus; test: Antibacterial activity against methicillin-resistant Staphylococcus aureus isolate 6 incubated overnight by agar dilution method; format: functional
Readout type: MIC (mg/L)
Number in mg/L, nothing else.

Cc1ccc(C(=O)S[C@H]2CC(=O)[C@@](C)(CCC(=O)Nc3c(O)ccc(C(=O)O)c3O)[C@@H]3[C@@H]4C[C@H]5C[C@]23C[C@]5(C)O4)cc1 : 1
C=C1C[C@@]23CCC1C[C@@H]2[C@](C)(CCC(=O)Nc1c(O)ccc(C(=O)O)c1O)C(=O)C[C@@H]3Sc1ccc(C)cc1 (single isomer, unassigned) : 1

Kindly review the next molecule as well.
Which value of MIC has been reported for Cc1ccc(S[C@H]2CC(=O)[C@@](C)(CCC(=O)Nc3c(O)ccc(C(=O)O)c3O)[C@@H]3[C@@H]4C[C@H]5C[C@]23C[C@]5(C)O4)cc1 in the records?
2

----------
tested on: Staphylococcus aureus; assay: Antibacterial activity against methicillin-resistant Staphylococcus aureus isolate 6 incubated overnight by agar dilution method; assay type: functional
Readout type: MIC (µg/mL)
The answer is to be given in µg/mL; state only the numeric part.

C[C@]12C[C@]34C[C@@H]1C[C@H](O2)[C@H]3[C@](C)(CCC(=O)Nc1c(O)ccc(C(=O)O)c1O)C(=O)C[C@@H]4SC(=O)c1ccc(F)cc1 : 1
C[C@]12C[C@]34C[C@@H]1C[C@H](O2)[C@H]3[C@](C)(CCC(=O)Nc1c(O)ccc(C(=O)O)c1O)C(=O)C[C@@H]4SC(=O)Cc1ccc(F)cc1 : 2
C[C@]12C[C@]34C[C@@H]1C[C@H](O2)[C@H]3[C@](C)(CCC(=O)Nc1c(O)ccc(C(=O)O)c1O)C(=O)C[C@@H]4SC(=O)c1cc(C(F)(F)F)cc(C(F)(F)F)c1 : 1

What MIC appears in the records for this compound with Staphylococcus aureus? C[C@]12C[C@]34C[C@@H]1C[C@H](O2)[C@H]3[C@](C)(CCC(=O)Nc1c(O)ccc(C(=O)O)c1O)C(=O)C[C@@H]4SC(=O)c1cccc(F)c1
1

Now give it for C[C@]12C[C@]34C[C@@H]1C[C@H](O2)[C@H]3[C@](C)(CCC(=O)Nc1c(O)ccc(C(=O)O)c1O)C(=O)C[C@@H]4SC(=O)c1cccc(C(F)(F)F)c1 too.
1

Next: CC(=O)S[C@H]1CC(=O)[C@@](C)(CCC(=O)Nc2c(O)ccc(C(=O)O)c2O)[C@@H]2[C@@H]3C[C@H]4C[C@]12C[C@]4(C)O3
2

Proceed to C[C@]12C[C@]34C[C@@H]1C[C@H](O2)[C@H]3[C@](C)(CCC(=O)Nc1c(O)ccc(C(=O)O)c1O)C(=O)C[C@@H]4SC(=O)c1ccccc1C(F)(F)F
1

Can you handle C[C@]12C[C@]34C[C@@H]1C[C@H](O2)[C@H]3[C@](C)(CCC(=O)Nc1c(O)ccc(C(=O)O)c1O)C(=O)C[C@@H]4SC(=O)c1ccc(Cl)cc1 next?
1
